Listed binders paired with reported Agonist activity (EC50, M)
Molecular target: T1, human GLP-1R (human), P43220
T1 chain: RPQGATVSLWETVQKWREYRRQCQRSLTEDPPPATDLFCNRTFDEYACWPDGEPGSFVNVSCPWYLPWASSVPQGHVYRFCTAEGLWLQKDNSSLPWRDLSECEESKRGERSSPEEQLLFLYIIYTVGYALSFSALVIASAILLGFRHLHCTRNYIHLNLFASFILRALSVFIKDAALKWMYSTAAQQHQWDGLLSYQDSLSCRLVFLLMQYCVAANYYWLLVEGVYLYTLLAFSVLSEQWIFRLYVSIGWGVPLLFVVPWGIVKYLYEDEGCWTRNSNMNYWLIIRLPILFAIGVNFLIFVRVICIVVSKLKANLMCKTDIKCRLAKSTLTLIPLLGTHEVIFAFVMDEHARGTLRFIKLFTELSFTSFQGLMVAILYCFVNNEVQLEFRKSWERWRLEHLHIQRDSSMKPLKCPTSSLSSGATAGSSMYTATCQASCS
Starred links: 1 amine or outer side, 2 acyl side, 3 side chain; linkers in the order of their positions; H or OH if unused. Non-standard residues stand in square brackets, D forms with d. Groups on a side chain read outwards from the residue. Primed or numbered codes have the meaning given here. No end group written: not given here. *: point of attachment. C20 diacid = O=C(O)CCCCCCCCCCCCCCCCCCC(=O)*; γGlu = O=C(O)[C@H](CCC(=O)[*:2])N[*:1]; NMeY = CN[C@@H](Cc1ccc(O)cc1)C(=O)O; Tridecanoyl = CCCCCCCCCCCCC(=O)*; αMeF = C[C@](N)(Cc1ccccc1)C(=O)O; Lauroyl = CCCCCCCCCCCC(=O)*; dIva = CC[C@@](C)(N)C(=O)O; Iva = CC[C@](C)(N)C(=O)O; PEG2′ = not defined here; PEG3′ = not defined here; PEG4′ = not defined here; Aib = CC(C)(N)C(=O)O

Worked examples follow.
[NMeY][Aib]EGTFISDYSIALDRIAQQS[αMeF]VNWLLAQRPSSGAPPPSR (not fully specified (C-terminus); ends and bridges not checked) [Compound 71]; > 1e-06 M
Y[Aib]EGTFISDYSK([PEG2′-Lauroyl])ALDR[Aib]AQQD[αMeF]VNWLLAQRPSSGAPPPS (not fully specified (C-terminus); ends and bridges not checked) [Compound 213]; 5.4e-08 M

Consider Y[Aib]EGTFISDYSK([PEG2′-Tridecanoyl])ALDRIAQQDFVNWLLAQRPSSGAPPPSR (ends and bridges not checked) [Compound 185] . Its measured Agonist activity (EC50, M) is 2.6e-08 M

So for [NMeY][Aib]EGTFISDYSI[dIva]LDRIHQQDFVNWLLAQRPSSGAPPPSR (not fully specified (N-terminus, C-terminus); ends and bridges not checked) [Compound 144] , the logged Agonist activity (EC50, M) turned out to be > 1e-06 M

The binder identified as Y[Aib]EGTVVSLYSI[Aib]LDKQAQ[Aib]EFVKWLLKGK(Pal) (ends and bridges not checked) [Compound 163] registered its Agonist activity (EC50, M) at > 1e-06 M

// Agonist activity (EC50, M) value for [NMeY][Aib]EGTFISDYSI[dIva]LDR[Aib]AQ[Aib]N[αMeF]VNWLLAQRPSSGAPPPSR (not fully specified (N-terminus, C-terminus); ends and bridges not checked) [Compound 106] : > 1e-06 M

Given item Y[Aib]EGTVVSLYSI[Aib]LDKQAQ[Aib]EFVKWLLAQKK([PEG(2)-Pal]) (ends and bridges not checked) [Compound 160] , the value recorded as its Agonist activity (EC50, M) is > 1e-06 M

Please fill in: Agonist activity (EC50, M) reported for Y[Aib]EGTFISDYSK([PEG(2)-Lauroyl])ALDRIHQQSFVNW[Iva]LAQRPSSGAPPPS (not fully specified (C-terminus); ends and bridges not checked) [Compound 222] = > 1e-06 M

Measured Agonist activity (EC50, M), Y[Aib]EGTVVSLYSK(Pal)[Aib]LDKQAQ[Aib]EFVKWLLAQK (ends and bridges not checked) [Compound 159] : > 1e-06 M

Lab note: measured Agonist activity (EC50, M) of Y[Aib]EGTVVSLYSK([Gly-Gly-Gly-Gly-C20 diacid])[Aib]LDRQAQ[Aib]EFVK(Ac)WLLAQR (ends and bridges not checked) [Compound 259] was > 1e-06 M

The binder listed as Y[Aib]EGTVVSLYSK([Gly-Gly-Gly-Gly-C20 diacid])[Aib]LDRQAQ[Aib]EFVK(Ac)WLLAQR (ends and bridges not checked) [Compound 260] has a reported Agonist activity (EC50, M) of > 1e-06 M

For this binder ( Y[Aib]EGTFISDYSIALDRK([PEG3′-PEG3′-γGlu-C20 diacid])HQQDFVNWLLAQRPSSGAPPPS (not fully specified (C-terminus); ends and bridges not checked) [Compound 237] ), measured Agonist activity (EC50, M) is > 1e-06 M

For Y[Aib]EGTFISDYSK([PEG2′-Lauroyl])ALDR[Aib]AQ[Aib]NFVNW[Iva]LAQRPSSGAPPPS (not fully specified (C-terminus); ends and bridges not checked) [Compound 211] the binder record lists Agonist activity (EC50, M) as 2.6e-08 M

For record Y[Aib]EGTFISDYSIAK([PEG(2)-C20 diacid])DRIAQQNFVNW[Iva]LAQRPSSGAPPPS (ends and bridges not checked) [Compound 383] the listed Agonist activity (EC50, M) is > 1e-06 M

Recorded Agonist activity (EC50, M) (binder Y[Aib]EGTFISDYSK([PEG4′-Lauroyl])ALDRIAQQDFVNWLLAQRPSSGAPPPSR (ends and bridges not checked) [Compound 189] ): 2.7e-08 M

Consider Y[Aib]EGTFISDYSK([PEG2′-Lauroyl])ALDRIAQQSFVNW[Iva]LAQRPSSGAPPPS (not fully specified (C-terminus); ends and bridges not checked) [Compound 220] . Its measured Agonist activity (EC50, M) is 9.9e-08 M

The origin of these recorded values is patent US20180298070A1.
